This listing pairs molecules with measured normalized growth.
# assay_info: chemical genetic growth profiling, strain panel (AID 1159580);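 note: tested at 20 µM; growth read once vehicle control cultures reached saturation at 30 °C; 1 = growth at the plate median or of vehicle wells; lower values mean less growth of the strain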
# condition_context: S. cerevisiae deletion strains, growth OD, locus YCL061C, strain MRC1, stronger effect = lower value
The whole screen tested about 5,500 compounds, of which about 2,000 (36%) were called active. Roughly 18% stayed inconclusive and do not appear here. This is one part of the list.
Simply state the number, no unit and no words.

# count of solved cases: 8
CC(=O)O[C@H]1CC[C@@]2(C)C(C[C@@H](OC(C)=O)[C@]3(C)C2CC[C@@]2(C)[C@H](c4ccoc4)OC(=O)[C@H]4O[C@]423)C1(C)C (stereo partly specified) ... 1
O=c1oc2ccccc2cc1O ... 0.991
Cc1onc2c(=O)n(-c3ccccc3)nc(-c3ccccc3)c12 ... 0.98
Cc1nn(Cc2ccccc2Cl)c(=N)s1 ... 0.992
CC(=O)Oc1c2c(c3c(c1CC=C(C)C)O[C@]14C(=C[C@@H]5CC1C(C)(C)OC4(C/C=C(\C)C(=O)O)C5=O)C3=O)OC(C)(CCC=C(C)C)C=C2 (stereo partly specified) ... 0.98
Cc1cc(CC(=O)O)n(C)c1C(=O)c1ccc(Cl)cc1 ... 1.03
NNC(=O)c1cnn(-c2ccc(Cl)cc2)c1C(F)(F)F ... 0.983
COc1ccc(-c2oc3cc(OC)c(OC)c(OC)c3c(=O)c2OC)cc1OC ... 0.993

Value of normalized growth reported for the molecule CCN1C[C@@]2(COC)C3[C@@H](OC)[C@H]4[C@@H]1[C@]3(C(OC)C[C@H]2O)C1C[C@@]2(O)[C@H](OC(=O)c3ccccc3)C1[C@]4(OC(C)=O)[C@@H](O)[C@@H]2OC (stereo partly specified) is 1

normalized growth in this record for O=S(=O)(NCc1ccc2c(c1)OCO2)c1ccc(F)c(Cl)c1 : 0.977

CCOC(=O)c1cnn(-c2ccc(N)cc2)c1C(F)(F)F has a reported normalized growth of 0.979

Form field normalized growth, entry O=C(O)CCC1NCC2CC1CN1CCCCC21 (stereo unspecified) : 0.989

Entry O=S(=O)(NCCc1ccncc1)c1cc(C(F)(F)F)cc(C(F)(F)F)c1 , normalized growth reported as 0.963

----------
Measured normalized growth, listed per entry for reference.
# assay_info: chemical genetic growth profiling, strain panel (AID 1159580);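 note: tested at 20 µM; growth read once vehicle control cultures reached saturation at 30 °C; 1 = growth at the plate median or of vehicle wells; lower values mean less growth of the strain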
# condition_context: S. cerevisiae deletion strains, growth OD, locus YOR119C, strain RIO1, stronger effect = lower value
Among all 5,500 compounds or so, about 2,000 (36%) were called active. Inconclusive results (about 18%) are left out. This is one part of the list.
// return a plain number; no unit text

Worked examples follow.
FC(F)(F)c1cc(NC(=S)SCCSC(=S)Nc2cc(C(F)(F)F)cc(C(F)(F)F)c2)cc(C(F)(F)F)c1 ... 1.02
O=C(Nc1cc(C(F)(F)F)cc(C(F)(F)F)c1)C(Cl)(Cl)Cl ... 1
Clc1cc(Cl)cc(C=NCc2ccccc2)c1 ... 0.744

# input for lookup
Entry CC(C)(C)C1=C(C#N)C(c2c(Cl)cccc2Cl)C(C#N)=C(N)O1 (stereo not drawn) ; normalized growth = 1.04

----------
# assay_info: chemical genetic growth profiling, strain panel (AID 1159580);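 note: tested at 20 µM; growth read once vehicle control cultures reached saturation at 30 °C; 1 = growth at the plate median or of vehicle wells; lower values mean less growth of the strain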
# condition_context: S. cerevisiae deletion strains, growth OD, locus YDR052C, strain DBF4, stronger effect = lower value
The campaign covered roughly 5,500 compounds. About 2,000 (36%) were called active. Not shown: some 18% with an inconclusive outcome. The list shows a part of the results.
measured_parameter: normalized growth
// return a plain number; no unit text

Examples with answers:
Cc1cccc(N=NC(C(=O)C(F)(F)F)=C(O)c2cccs2)c1 ... 0.99
CCOC(=O)c1sc(S(C)=NC(=O)Nc2ccc(Cl)cc2)c2c1CCC=C2 (stereo unspecified) ... 0.981
CC1=CC(=O)N(c2ccc(F)c(Cl)c2)C1=O ... 0.978
CC(C)(C)C1=C(C#N)C(c2c(Cl)cccc2Cl)C(C#N)=C(N)O1 (stereo unspecified) ... 0.997
Nc1ccccc1C(=O)Nc1cc(C(F)(F)F)cc(C(F)(F)F)c1 ... 0.97

// next entry
Looking up CC1=CC(=O)N(c2ccc(OC(F)(F)F)cc2)C1=O , I found its normalized growth recorded as 0.883

Reference source for all entries: PubChem BioAssay AID1159580
